Provenance of the data: patent US11332479B2

Target or system C-RAF (Homo sapiens (Human)); recorded quantity log10(IC50).
In our notation, the value equals log10 of IC50 in nM.

The examples below pair each entry with its known result.
{"Compound": "CCN1CCN(CCNc2nccc(-c3c(-c4cccc(O)c4)nc4occn34)n2)S1(=O)=O", "System": "C-RAF (Homo sapiens (Human))", "Observed measurement": -0.12}
{"Compound": "CCN1CCN(CCNc2nccc(-c3c(-c4ccc(F)c(O)c4)nc4sccn34)n2)S1(=O)=O [Compound 31II]", "System": "C-RAF (Homo sapiens (Human))", "Observed measurement": 0.89}
{"Compound": "COc1cc(-c2nc3sccn3c2-c2ccnc(NCCCNS(=O)(=O)c3ccc(F)cc3)n2)ccc1F", "System": "C-RAF (Homo sapiens (Human))", "Observed measurement": 1.14}

**Query** Give log10(IC50) for this entry on C-RAF (Homo sapiens (Human)): Nc1cc(-c2nc3sccn3c2-c2ccnc(NCCCNS(=O)(=O)c3ccc(F)cc3)n2)ccc1F
Sequence (P04049 whole entry): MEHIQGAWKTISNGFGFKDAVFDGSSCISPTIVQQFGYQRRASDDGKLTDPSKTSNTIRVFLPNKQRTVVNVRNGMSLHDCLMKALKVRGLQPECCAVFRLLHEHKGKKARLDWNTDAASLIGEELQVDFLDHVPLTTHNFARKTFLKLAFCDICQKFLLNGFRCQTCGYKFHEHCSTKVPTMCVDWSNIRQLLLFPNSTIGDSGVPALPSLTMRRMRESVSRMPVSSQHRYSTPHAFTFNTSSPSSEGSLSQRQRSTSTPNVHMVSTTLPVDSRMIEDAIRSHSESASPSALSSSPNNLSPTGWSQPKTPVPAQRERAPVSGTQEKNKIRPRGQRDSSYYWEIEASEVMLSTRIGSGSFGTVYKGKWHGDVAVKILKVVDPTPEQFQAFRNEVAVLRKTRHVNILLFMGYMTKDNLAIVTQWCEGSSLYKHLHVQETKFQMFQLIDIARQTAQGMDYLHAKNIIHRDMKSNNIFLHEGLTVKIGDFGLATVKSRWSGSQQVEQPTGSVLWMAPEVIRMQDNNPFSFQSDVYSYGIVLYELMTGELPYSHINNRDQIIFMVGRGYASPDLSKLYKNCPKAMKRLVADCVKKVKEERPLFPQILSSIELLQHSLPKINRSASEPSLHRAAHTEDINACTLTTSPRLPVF
**Result** 0.73

**Query** Please indicate recorded log10(IC50) of CN1CCN(CCNc2nccc(-c3c(-c4cccc(O)c4)nc4occn34)n2)S1(=O)=O measured with C-RAF (Homo sapiens (Human)).
**Result** 0.47
